Test system: A549
experiment: Cytotoxicity against human A549 cells by MTT assay
Type: cell-based
measurement.setup: read-out: IC50
measured.quantity: IC50 (µM)
Numbers only, in µM.

Entry CC(=O)C1=CC[C@H]2[C@@H]3C=CC4=CC(=O)CC[C@]4(C)[C@H]3C[C@@H](O)[C@]12C [NERIDIENONE A] — recorded IC50 = 53.1

###

Please go through the items and note down their Activity.
experiment: Effect on calcein accumulation in multidrug resistant human 2780 AD cells at 0.25 ug/mL relative to control
Type: functional
Answers are plain numbers, in %.

Some entries whose results are on file:
{"molecule": "C[C@@H](O)[C@H]1CC[C@H]2[C@@H]3C=CC4=CC(=O)CC[C@]4(C)[C@H]3CC(=O)[C@]12C", "Activity (%)": 116}
{"molecule": "C[C@]12C(=O)C[C@H]3[C@@H](C=CC4=CC(=O)CC[C@@]43C)[C@@H]1CC[C@@H]2C(=O)CO", "Activity (%)": 110}
{"molecule": "C[C@]12C(=O)C[C@H]3[C@@H](C=CC4=CC(=O)CC[C@@]43C)[C@@H]1CC[C@@H]2[C@H](O)CO [NERIDIENONE B]", "Activity (%)": 110}
{"molecule": "CC(=O)C1=CC[C@H]2[C@@H]3C=CC4=CC(=O)CC[C@]4(C)[C@H]3C[C@@H](O)[C@]12C [NERIDIENONE A]", "Activity (%)": 109}
{"molecule": "CC(=O)[C@]12O[C@H]1C[C@H]1[C@@H]3C=CC4=CC(=O)CC[C@]4(C)[C@H]3C[C@@H](O)[C@@]12C", "Activity (%)": 103}

Entry COc1ccc(CCN(C)CCCC(C#N)(c2ccc(OC)c(OC)c2)C(C)C)cc1OC (stereo unspecified) [VERAPAMIL] — recorded Activity = 97

###

experiment: Effect on calcein accumulation in multidrug resistant human 2780 AD cells at 2.5 ug/mL relative to control
Assay type: functional
Please go through the items and note down their Activity.
Answers are plain numbers, in %.

Batch lookup, Activity per entry.
1. CC(=O)C1=CC[C@H]2[C@@H]3C=CC4=CC(=O)CC[C@]4(C)[C@H]3C[C@@H](O)[C@]12C
2. COc1ccc(CCN(C)CCCC(C#N)(c2ccc(OC)c(OC)c2)C(C)C)cc1OC (stereo unspecified)
3. C[C@]12C(=O)C[C@H]3[C@@H](C=CC4=CC(=O)CC[C@@]43C)[C@@H]1CC[C@@H]2C(=O)CO
4. CC(=O)[C@]12O[C@H]1C[C@H]1[C@@H]3C=CC4=CC(=O)CC[C@]4(C)[C@H]3C[C@@H](O)[C@@]12C
5. C[C@]12C(=O)C[C@H]3[C@@H](C=CC4=CC(=O)CC[C@@]43C)[C@@H]1CC[C@@H]2[C@H](O)CO

92
109
105
108
154

Entry C[C@@H](O)[C@H]1CC[C@H]2[C@@H]3C=CC4=CC(=O)CC[C@]4(C)[C@H]3CC(=O)[C@]12C — recorded Activity = 127
